Numbers sourced from patent US20190359712A1.

experimentalSystem: T1, cynomolgus monkey CD3 on cynomolgus monkey PBMC or T cell line HSC-F (cynomolgus monkey, UniProt Q95LI5 22-198)
T1 construct: whole, on cells; Native CD3 complex on monkey T cells; also called cynomolgus monkey CD3 (PBMC); cynomolgus monkey CD3 antigen
T1 sequence (Q95LI5 22-198): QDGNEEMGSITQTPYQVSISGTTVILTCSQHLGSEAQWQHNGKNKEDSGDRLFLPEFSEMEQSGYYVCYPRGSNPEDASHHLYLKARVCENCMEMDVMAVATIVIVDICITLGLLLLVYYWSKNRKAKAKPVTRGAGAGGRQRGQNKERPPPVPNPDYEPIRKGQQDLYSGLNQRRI
measurementDescription: flow cytometry on cynomolgus monkey PBMC
reportedProperty: binding result

* C3E-7090 (CDR modified humanized anti-CD3 scFv) (scFv, C3E-7078 with alanine for aspartic acid at position 52 of the VL; the change is already in the entry) scFv: GEVQLVESGGGLVQPGGSLRLSCAASGVTFNYYGMSWIRQAPGKGLEWVASITRSGGRIYYPDSVKGRFTISRENTQKTLYLQMNSLRAEDTAVYYCTLDGRDGWVAYWGQGTLVTVSSGGGGSGGGGSGGGGSNFMLTQPHSVSESPGKTVTISCKRNTGNIGSNYVNWYQQHEGSSPTTIIYRADKRPDGVSDRFSGSIDRSSKSASLTISNLKTEDEADYFCQSYSSGFIFGGGTKLTVLGAAAGAGGDYKDDDDKGAAAHHHHHH | binds
* C3E-7035 (humanized anti-CD3 scFv) (scFv) scFv: GEVQLVESGGGLVQPGGSLRLSCAASGVTFNYYGMSWIRQAPGKGLEWVASITNSGGRIYYPDSVKGRFTISRENTQKTLYLQMNSLRAEDTAVYYCTLDGRDGWVAYWGQGTLVTVSSGGGGSGGGGSGGGGSMAQAVLTQPSSVSGVPGQRVTISCKRNTGNIGSNYVNWYQQLPGTAPKLLIYRDDKRPSGVPDRFSGSKSGTSASLAITGFQAEDEADYYCQSYSSGFIFGGGTKLTVLGAAAGAGGDYKDDDDKGAAAHHHHHH | binds
